EXPERIMENTAL_TARGET: BCRP (Homo sapiens (Human))
EXPERIMENTAL_PROTOCOL: BCRP MDCKII efflux assay (Assay 7)
Format: in vitro ADME
RECORDED_CONDITIONS: dog; efflux ratio Papp(B-A)/Papp(A-B), BCRP MDCKII cells; read-out: Assay 7 Pe Ratio
RECORDED_METRIC: efflux ratio at 2 h, 1 µM
Answer as a number with no unit attached.

Please review the entries below; each comes with its answer.
- C=CC(=O)N1CCCC(c2ccc3ncnc(Nc4ccc(Oc5cnc6c(c5)ncn6C)c(C)c4F)c3n2)CC1 (stereo not shown) [Example 413]: 2
- C=CC(=O)N1[C@@H]2CC[C@H]1[C@H](c1ccc3ncnc(Nc4ccc(Oc5ccn6ncnc6c5)c(C)c4F)c3n1)C2 (single isomer, unassigned) [Example 228]: 3.3
- C=CC(=O)N1[C@H](C)CN(c2ccc3ncnc(Nc4ccc(Oc5ccc6c(c5)ncn6C)c(C)c4)c3n2)C[C@@H]1C [Example 106]: 10.1
- C=CC(=O)N1C2CC1CN(c1ccc3ncnc(Nc4cc(C)c(Oc5cnc6c(c5)ncn6C)cc4F)c3n1)C2 [Example 446]: 19.4
- C=CC(=O)N1CCN(c2ccc3ncnc(Nc4cc(Cl)c(Oc5ccn6ncnc6c5)cc4F)c3n2)CC1 [Example 81]: 17.4

query: So what does the record say about efflux ratio at 2 h, 1 µM for C=CC(=O)N1CC(Sc2ccc3ncnc(Nc4ccc(Oc5ccn6ncnc6c5)c(C)c4F)c3n2)C1 [Example 63] ?
result: 3.8

----------
EXPERIMENTAL_TARGET: ErbB2 WT (Homo sapiens (Human))
Sequence (P04626 23-1255): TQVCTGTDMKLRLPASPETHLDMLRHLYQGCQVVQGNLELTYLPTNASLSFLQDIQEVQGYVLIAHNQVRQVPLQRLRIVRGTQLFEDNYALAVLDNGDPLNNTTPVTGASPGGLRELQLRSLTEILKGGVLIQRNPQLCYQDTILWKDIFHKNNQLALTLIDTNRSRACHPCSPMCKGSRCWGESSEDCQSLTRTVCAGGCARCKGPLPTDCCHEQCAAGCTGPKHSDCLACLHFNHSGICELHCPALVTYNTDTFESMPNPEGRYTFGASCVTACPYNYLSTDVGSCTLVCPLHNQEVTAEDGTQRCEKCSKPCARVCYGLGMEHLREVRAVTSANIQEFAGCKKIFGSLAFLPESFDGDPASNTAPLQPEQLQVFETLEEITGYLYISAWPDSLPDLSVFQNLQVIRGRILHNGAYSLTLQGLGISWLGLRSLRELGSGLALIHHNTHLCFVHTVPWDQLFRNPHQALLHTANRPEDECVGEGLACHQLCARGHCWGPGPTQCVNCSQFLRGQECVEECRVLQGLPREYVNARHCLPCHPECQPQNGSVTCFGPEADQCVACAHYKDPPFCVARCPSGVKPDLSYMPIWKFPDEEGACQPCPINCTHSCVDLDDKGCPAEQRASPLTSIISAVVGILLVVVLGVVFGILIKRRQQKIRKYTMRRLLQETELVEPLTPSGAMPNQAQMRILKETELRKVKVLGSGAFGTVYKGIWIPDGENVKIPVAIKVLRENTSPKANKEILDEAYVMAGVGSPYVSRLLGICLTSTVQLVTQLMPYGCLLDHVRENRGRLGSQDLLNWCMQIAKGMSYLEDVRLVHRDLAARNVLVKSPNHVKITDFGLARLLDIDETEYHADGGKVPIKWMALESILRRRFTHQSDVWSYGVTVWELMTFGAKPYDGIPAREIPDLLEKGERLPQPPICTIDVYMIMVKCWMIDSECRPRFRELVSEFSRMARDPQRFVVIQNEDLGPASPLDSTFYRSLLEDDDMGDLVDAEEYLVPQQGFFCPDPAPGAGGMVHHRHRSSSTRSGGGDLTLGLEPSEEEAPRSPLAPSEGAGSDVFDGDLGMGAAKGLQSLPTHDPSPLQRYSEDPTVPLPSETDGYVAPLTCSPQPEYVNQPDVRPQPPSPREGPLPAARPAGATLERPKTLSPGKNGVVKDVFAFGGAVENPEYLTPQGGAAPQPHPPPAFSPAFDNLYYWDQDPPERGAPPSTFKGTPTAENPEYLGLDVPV
EXPERIMENTAL_PROTOCOL: ErbB Enzyme Assay (HTRF KinEASE-TK), Assay 2
Format: biochemical
RECORDED_CONDITIONS: ErbB2 WT enzyme
Consider the following compounds and their measured IC50 readings.
Numbers only; they are read as nM.

Please review the entries below; each comes with its answer.
- C=CC(=O)N1C[C@H]2C[C@@H]1CN2c1ccc2ncnc(Nc3cc(C)c(Oc4ccn5ncnc5c4)cc3F)c2n1: 448
- C=CC(=O)N1CCN(c2ccc3ncnc(Nc4cc(Cl)c(Oc5ccc6c(c5)ncn6C)cc4F)c3n2)CC1(C)C: 33.4

query: So what does the record say about IC50 for C=CC(=O)N1C[C@H]2CC[C@@H]1CN2c1ccc2ncnc(Nc3ccc(Oc4ccn5ncnc5c4)c(C)c3F)c2n1 ?
result: 172

----------
EXPERIMENTAL_TARGET: BCRP (Homo sapiens (Human), UniProt Q9UNQ0)
Sequence (Q9UNQ0 whole entry): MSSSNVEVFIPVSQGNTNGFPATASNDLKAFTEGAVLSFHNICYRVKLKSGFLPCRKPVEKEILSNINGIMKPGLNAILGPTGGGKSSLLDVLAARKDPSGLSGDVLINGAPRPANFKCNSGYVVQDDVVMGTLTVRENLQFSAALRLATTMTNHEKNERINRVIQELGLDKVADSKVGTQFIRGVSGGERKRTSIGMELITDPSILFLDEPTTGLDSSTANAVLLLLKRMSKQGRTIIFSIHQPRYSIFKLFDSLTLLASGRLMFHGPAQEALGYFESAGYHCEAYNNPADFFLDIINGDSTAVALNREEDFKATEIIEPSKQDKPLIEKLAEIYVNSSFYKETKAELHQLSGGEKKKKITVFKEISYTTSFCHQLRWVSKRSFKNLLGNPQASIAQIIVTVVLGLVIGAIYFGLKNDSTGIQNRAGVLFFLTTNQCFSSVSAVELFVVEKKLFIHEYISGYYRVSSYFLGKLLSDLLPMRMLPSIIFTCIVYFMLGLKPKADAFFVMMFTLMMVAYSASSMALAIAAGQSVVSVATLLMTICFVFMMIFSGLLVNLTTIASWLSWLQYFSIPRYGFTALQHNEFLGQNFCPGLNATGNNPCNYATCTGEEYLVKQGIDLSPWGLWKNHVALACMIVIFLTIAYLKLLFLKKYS
EXPERIMENTAL_PROTOCOL: BCRP MDCKII efflux assay (Assay 7)
Assay type: in vitro ADME
RECORDED_CONDITIONS: dog; efflux ratio Papp(B-A)/Papp(A-B), BCRP MDCKII cells; read-out: Assay 7 Pe Ratio
RECORDED_METRIC: efflux ratio at 2 h, 1 µM
Answer as a number with no unit attached.

Please review the entries below; each comes with its answer.
- C=CC(=O)N1CCC12CN(c1ccc3ncnc(Nc4cc(C)c(Oc5ccn6ncnc6c5)cc4F)c3n1)C2: 2.3
- C=CC(=O)N1CCC(c2nc3c(Nc4ccc(Oc5ccc6c(c5)ncn6C)c(C)c4)ncnc3cc2OC)CC1: 2.9
- C=CC(=O)N1C[C@H]2CC[C@@H]1C[C@@H]2c1ccc2ncnc(Nc3ccc(Oc4ccn5ncnc5c4)c(C)c3F)c2n1 (racemic): 1.9
- C=CC(=O)N1[C@@H]2CC[C@H]1CC(c1ccc3ncnc(Nc4ccc(Oc5ccn6ncnc6c5)c(C)c4F)c3n1)C2 (stereo partly drawn): 4.3
- C=CC(=O)N1CC(c2ccc3ncnc(Nc4cc(C)c(Oc5ccc6c(c5)ncn6C)cc4F)c3n2)CCC12CC2 (stereo not drawn): 2.5
- C=CC(=O)N1C[C@@H]2C[C@H](c3ccc4ncnc(Nc5cc(C)c(Oc6ccc7c(c6)ncn7C)cc5F)c4n3)C[C@H]1C2: 1.8
- C=CC(=O)N1C[C@H]2C[C@H](c3ccc4ncnc(Nc5ccc(Oc6ccc7c(c6)ncn7C)c(C)c5F)c4n3)C[C@H]2C1: 1.8
- C=CC(=O)N1[C@@H]2CC[C@H]1CC(c1ccc3ncnc(Nc4ccc(Oc5ccc6c(c5)ncn6C)c(C)c4F)c3n1)C2 (mixture of isomers): 3

Now, please, on to the next compound.
query: So what does the record say about efflux ratio at 2 h, 1 µM for C=CC(=O)N1C2CCC1CN(c1ccc3ncnc(Nc4ccc(Oc5ccn6ncnc6c5)c(C)c4F)c3n1)C2 ?
result: 9

----------
Consider the following compounds and their measured pIC50 readings.
EXPERIMENTAL_TARGET: ErbB2 with Exon 20 YVMA insertion (HER2-YVMA) (Homo sapiens (Human), UniProt P04626, INS775YVMA)
Sequence (P04626 other isoform, or with tags, fused parts or gaps ins YVMA behind 775): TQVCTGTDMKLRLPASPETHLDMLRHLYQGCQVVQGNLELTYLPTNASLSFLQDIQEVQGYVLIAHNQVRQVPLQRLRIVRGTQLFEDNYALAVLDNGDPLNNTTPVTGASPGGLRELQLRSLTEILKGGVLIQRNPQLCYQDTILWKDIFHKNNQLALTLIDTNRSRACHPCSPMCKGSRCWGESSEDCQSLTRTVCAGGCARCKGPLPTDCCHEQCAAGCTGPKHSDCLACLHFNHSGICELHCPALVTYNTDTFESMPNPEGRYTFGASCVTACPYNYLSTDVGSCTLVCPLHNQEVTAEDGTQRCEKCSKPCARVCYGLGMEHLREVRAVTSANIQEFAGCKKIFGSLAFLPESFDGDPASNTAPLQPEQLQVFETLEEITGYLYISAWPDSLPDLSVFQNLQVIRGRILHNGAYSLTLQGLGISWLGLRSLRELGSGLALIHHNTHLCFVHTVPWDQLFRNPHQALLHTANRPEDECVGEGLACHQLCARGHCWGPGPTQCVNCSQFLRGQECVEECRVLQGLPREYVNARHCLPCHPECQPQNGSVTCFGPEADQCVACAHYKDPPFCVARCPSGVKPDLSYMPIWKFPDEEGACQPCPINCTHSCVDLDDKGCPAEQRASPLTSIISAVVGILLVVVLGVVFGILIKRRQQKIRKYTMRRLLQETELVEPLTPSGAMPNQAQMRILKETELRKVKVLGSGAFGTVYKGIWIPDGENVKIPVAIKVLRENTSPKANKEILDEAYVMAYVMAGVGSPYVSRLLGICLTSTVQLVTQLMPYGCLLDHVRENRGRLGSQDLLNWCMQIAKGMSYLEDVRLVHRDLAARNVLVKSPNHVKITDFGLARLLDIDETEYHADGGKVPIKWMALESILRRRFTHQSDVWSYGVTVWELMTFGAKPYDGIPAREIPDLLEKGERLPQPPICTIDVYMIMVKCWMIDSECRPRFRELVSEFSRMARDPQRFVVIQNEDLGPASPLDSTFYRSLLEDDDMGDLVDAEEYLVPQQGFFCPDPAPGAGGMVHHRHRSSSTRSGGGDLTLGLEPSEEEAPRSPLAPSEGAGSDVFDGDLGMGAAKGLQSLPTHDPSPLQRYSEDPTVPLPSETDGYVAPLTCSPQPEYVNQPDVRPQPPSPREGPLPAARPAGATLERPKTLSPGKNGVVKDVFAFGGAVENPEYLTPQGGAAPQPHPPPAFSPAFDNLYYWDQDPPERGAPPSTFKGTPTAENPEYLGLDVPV
EXPERIMENTAL_PROTOCOL: Cellular Phosphorylation Assay, Assay 4 (constitutive ErbB2 phosphorylation, NIH 3T3 cells)
Assay type: cell-based
RECORDED_CONDITIONS: ErbB2 YVMA phosphorylation
Note on pIC50: it is the negative log10 of concentration, concentration in mol/L.

Please review the entries below; each comes with its answer.
- C=CC(=O)N1CCN(c2ccc3ncnc(Nc4cc(C)c(Oc5ccc6c(c5)ncn6C)cc4F)c3n2)CC1(C)C: 7.90
- C=CC(=O)N1CCC(Oc2ccc3ncnc(Nc4ccc(Oc5cnn6ccnc6c5)c(C)c4F)c3n2)CC1: 7.71
- C=CC(=O)N1[C@@H]2CC[C@H]1C[C@H](c1ccc3ncnc(Nc4ccc(Oc5ccc6c(c5)ncn6C)c(C)c4F)c3n1)C2: 7.75

query: So what does the record say about pIC50 for C=C(F)C(=O)N1[C@@H]2CC[C@H]1C[C@@H](c1ccc3ncnc(Nc4cc(C)c(Oc5ccn6ncnc6c5)cc4F)c3n1)C2 ?
result: 6.16

query: So what does the record say about pIC50 for C=CC(=O)N1CC[C@@H](c2ccc3ncnc(Nc4ccc(Oc5ccc6c(c5)ncn6C)c(C)c4F)c3n2)C1 (racemic) ?
result: 8.02

query: So what does the record say about pIC50 for C=CC(=O)N1CCN(c2nc3c(Oc4ccc(Oc5ccc6c(c5)ncn6C)c(C)c4)ncnc3cc2OC)CC1 ?
result: 7.51

query: So what does the record say about pIC50 for C=CC(=O)N1C2CC1CN(c1ccc3ncnc(Nc4cc(Cl)c(Oc5cnc6c(c5)ncn6C)cc4F)c3n1)C2 ?
result: 7.65

query: So what does the record say about pIC50 for C=CC(=O)N1CC[C@@H]2C[C@H](c3ccc4ncnc(Nc5cc(C)c(Oc6ccn7ncnc7c6)cc5F)c4n3)C[C@@H]21 (single isomer, unassigned) ?
result: 8.08

query: So what does the record say about pIC50 for C=CC(=O)N1CCN(c2ccc3ncnc(Nc4ccc(Oc5ccn6ncnc6c5)c(C)c4)c3n2)CC1(C)C ?
result: 8.03

query: So what does the record say about pIC50 for C=CC(=O)N1CCN(c2ccc3ncnc(Nc4ccc(Oc5ccc6c(c5)ncn6C)c(C)c4F)c3n2)C[C@@H]1C1CC1 ?
result: 7.59

query: So what does the record say about pIC50 for C=CC(=O)N1[C@H]2CC[C@@H]1[C@@H](c1ccc3ncnc(Nc4ccc(Oc5ccn6ncnc6c5)c(C)c4F)c3n1)C2 (single isomer, unassigned) ?
result: 7.52

----------
EXPERIMENTAL_TARGET: BCRP (Homo sapiens (Human), UniProt Q9UNQ0)
EXPERIMENTAL_PROTOCOL: BCRP MDCKII efflux assay (Assay 7)
Assay type: in vitro ADME
RECORDED_CONDITIONS: dog; efflux ratio Papp(B-A)/Papp(A-B), BCRP MDCKII cells; read-out: Assay 7 Pe Ratio
RECORDED_METRIC: efflux ratio at 2 h, 1 µM

* C=CC(=O)N1[C@@H]2CC[C@H]1[C@H](c1ccc3ncnc(Nc4ccc(Oc5ccn6ncnc6c5)c(Cl)c4F)c3n1)C2 | 5.2

query: So what does the record say about efflux ratio at 2 h, 1 µM for C=CC(=O)N1[C@H](C)CN(c2ccc3ncnc(Nc4ccc(Oc5cnc6c(c5)ncn6C)c(C)c4F)c3n2)C[C@@H]1C ?
result: 1.9

query: So what does the record say about efflux ratio at 2 h, 1 µM for C=CC(=O)N1C[C@H](c2ccc3ncnc(Nc4ccc(Oc5ccc6c(c5)ncn6C)c(C)c4F)c3n2)CCC1(C)C (racemic) ?
result: 4.2

query: So what does the record say about efflux ratio at 2 h, 1 µM for C=CC(=O)N1[C@@H]2CCC[C@H]1[C@@H](c1ccc3ncnc(Nc4ccc(Oc5ccn6ncnc6c5)c(C)c4F)c3n1)C2 ?
result: 1.8

query: So what does the record say about efflux ratio at 2 h, 1 µM for C=CC(=O)N1C[C@@H]2C[C@H]1CN(c1ccc3ncnc(Nc4ccc(Oc5ccn6ncnc6c5)c(C)c4F)c3n1)C2 ?
result: 4.8

----------
Consider the following molecules and their measured efflux ratio at 2 h, 1 µM readings.
EXPERIMENTAL_TARGET: BCRP (Homo sapiens (Human), UniProt Q9UNQ0)
EXPERIMENTAL_PROTOCOL: BCRP MDCKII efflux assay (Assay 7)
Format: in vitro ADME
RECORDED_CONDITIONS: dog; efflux ratio Papp(B-A)/Papp(A-B), BCRP MDCKII cells; read-out: Assay 7 Pe Ratio
Answer as a number with no unit attached.

• C=CC(=O)N1C[C@@H]2CC[C@H]1CN(c1ccc3ncnc(Nc4ccc(Oc5ccn6ncnc6c5)c(C)c4F)c3n1)C2 (racemic) = 5.4
• C=CC(=O)N1[C@H](C)CN(c2ccc3ncnc(Nc4ccc(Oc5cc(F)c6c(c5)ncn6C)c(C)c4)c3n2)C[C@@H]1C = 14.4
• C=CC(=O)N1CCC(Oc2ccc3ncnc(Nc4ccc(Oc5ccc6cn(C)nc6c5)c(Cl)c4F)c3n2)CC1 = 2.4

query: So what does the record say about efflux ratio at 2 h, 1 µM for C=CC(=O)N1CCC(Oc2ccc3ncnc(Nc4ccc(Oc5ccn6ncnc6c5)c(Cl)c4F)c3n2)CC1 ?
result: 1.4
